- SUBJECT_OF_TEST: Human complement C1s enzyme (Homo sapiens, UniProt P09871)
- Construct: purified from human serum, Complement Technology, Inc; purchased Complement Technology, Inc; host or cells: human serum (plasma-derived natural protein)
- Sequence (P09871 438-688 limits assumed): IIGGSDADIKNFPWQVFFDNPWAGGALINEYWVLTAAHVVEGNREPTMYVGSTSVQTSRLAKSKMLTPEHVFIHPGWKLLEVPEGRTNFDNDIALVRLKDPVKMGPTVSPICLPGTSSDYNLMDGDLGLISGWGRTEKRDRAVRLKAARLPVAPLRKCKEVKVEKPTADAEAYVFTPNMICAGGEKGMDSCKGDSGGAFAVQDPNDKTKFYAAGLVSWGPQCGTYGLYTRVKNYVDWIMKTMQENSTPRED
- Sequence (P09871 16-437 partner limits assumed): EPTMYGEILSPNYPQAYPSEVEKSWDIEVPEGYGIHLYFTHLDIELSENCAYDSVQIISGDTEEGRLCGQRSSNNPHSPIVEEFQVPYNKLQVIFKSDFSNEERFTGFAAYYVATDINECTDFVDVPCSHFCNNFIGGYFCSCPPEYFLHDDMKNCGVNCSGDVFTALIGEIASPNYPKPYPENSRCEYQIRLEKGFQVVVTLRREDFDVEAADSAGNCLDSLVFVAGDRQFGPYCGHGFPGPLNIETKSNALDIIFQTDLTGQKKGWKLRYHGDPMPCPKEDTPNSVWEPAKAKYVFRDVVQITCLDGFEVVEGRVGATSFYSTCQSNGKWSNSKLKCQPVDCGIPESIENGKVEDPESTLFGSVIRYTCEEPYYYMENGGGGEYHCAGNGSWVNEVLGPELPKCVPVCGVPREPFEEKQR
- TEST_SUMMARY: Human C1s Enzyme Assay
- Format: biochemical
- ASSAY_SETUP: Table 1; C1s purified from human serum, 1.16 nM; substrate Z-L-Lys-SBzl; read-out: C1s Protease Activity
ASSAY_ENDPOINT: IC50

# example entries with known answers
COMPOUND	OBSERVED_RESULT
N=C(N)c1csc(CNC(=O)[C@@H]2CC3(CN2C(=O)CNC(=O)c2ccc(Oc4ccccc4)cc2)OCCO3)c1	< 100 nM
N=C(N)CCCCNC(=O)[C@@H]1CCCN1C(=O)CNC(=O)c1ccc(Oc2ccccc2)cc1	> 1000 nM
C=C1C[C@@H](C(=O)NCc2cc(C(=N)N)cs2)N(C(=O)CNC(=O)c2ccc(Oc3ccccc3)cc2)C1	< 100 nM
CO[C@H]1C[C@@H](C(=O)NCc2cc(C(=N)N)cs2)N(C(=O)CNC(=O)c2ccc(Oc3ccccc3)cc2)C1	< 100 nM
NCCCCCNC(=O)[C@@H]1CC2(CN1C(=O)CNC(=O)c1ccc(Oc3ccccc3)cc1)OCCO2	> 1000 nM

Exam item: Given the entry N=C(N)c1csc(CNC(=O)C2N(C(=O)CNC(=O)c3ccc(Oc4ccccc4)cc3)CC23CCC3)c1 (stereo not shown) , what IC50 was observed with Human complement C1s enzyme (Homo sapiens, UniProt P09871)?
Marked response: < 100 nM

Exam item: Form: Entry = C[C@@]12C[C@@H]1N(C(=O)CNC(=O)c1ccc(Oc3ccccc3)cc1)[C@H](C(=O)NCc1cc(C(=N)N)cs1)C2 | System = Human complement C1s enzyme (Homo sapiens, UniProt P09871) | IC50 = ____
Marked response: < 100 nM

Exam item: Lab note: need IC50 for N=C(N)c1csc(CNC(=O)[C@@H]2C[C@@H](O)CN2C(=O)CNC(=O)c2ccc(Oc3ccccc3)cc2)c1 on Human complement C1s enzyme (Homo sapiens, UniProt P09871), anyone have it?
Marked response: < 100 nM

Exam item: Provide the documented IC50 with Human complement C1s enzyme (Homo sapiens, UniProt P09871) as the system for N=C(N)c1csc(CNC(=O)[C@@H]2CCCN2C(=O)NNC(=O)c2ccc(Oc3ccccc3)cc2)c1
Marked response: 100 to 1000 nM

Exam item: Entry CO[C@@H]1C[C@@H](C(=O)NCc2cc(C(=N)N)cs2)N(C(=O)CNC(=O)c2ccc(Oc3ccccc3)cc2)C1 , system Human complement C1s enzyme (Homo sapiens, UniProt P09871): what IC50 was measured?
Marked response: < 100 nM

Exam item: Lookup: IC50 / Human complement C1s enzyme (Homo sapiens, UniProt P09871) / Nc1cc(CCNC(=O)[C@@H]2CC3(CN2C(=O)CNC(=O)c2ccc(Oc4ccccc4)cc2)OCCO3)ccn1
Marked response: > 1000 nM

The reported measurements were obtained from patent US12479856B2.
